# ASSAY TEXT: Phase 1 part B: PK of single 40 mg oral dose, fasted vs fed (food effect)
# Type: in vivo, human
# CONDITION INFO: human, plasma, po, 40 mg, 40 mg single oral, fasted, both Japanese and White participants; read-out: Tmax
ASSAY ENDPOINT: Tmax (h)
Answers are plain numbers, in h.

Ask: Please supply the value of reported Tmax for the item Cn1c(=O)oc2ccc(-c3ccc(C[C@@H](C#N)NC(=O)[C@@H]4CNCCCO4)cc3)cc21
Result: 1.3

###

# ASSAY TEXT: Phase 1 part B: PK of single 40 mg oral dose, fasted vs fed (food effect)
# Assay type: in vivo, human
# CONDITION INFO: human, plasma, po, 40 mg, 40 mg single oral dose, White, fasted; mean (CV%); read-out: t1/2 (converted)
ASSAY ENDPOINT: half-life (min)
Answers are plain numbers, in min.

Ask: Please supply the value of reported half-life for the item Cn1c(=O)oc2ccc(-c3ccc(C[C@@H](C#N)NC(=O)[C@@H]4CNCCCO4)cc3)cc21 [Brensocatib]
Result: 1730

###

# ASSAY TEXT: Phase 1 part A: PK after single and multiple once-daily oral doses
# Format: in vivo, human
# CONDITION INFO: human, plasma, po, 40 mg, Day 30, 40 mg once daily, White; mean (CV%)
ASSAY ENDPOINT: AUC (ng·h/mL)
Numbers only, in ng·h/mL.

Ask: Please supply the value of reported AUC for the item Cn1c(=O)oc2ccc(-c3ccc(C[C@@H](C#N)NC(=O)[C@@H]4CNCCCO4)cc3)cc21 [Brensocatib]
Result: 6470

###

# ASSAY TEXT: Phase 1 part A: PK after single and multiple once-daily oral doses
# Assay type: in vivo, human
# CONDITION INFO: human, plasma, po, 40 mg, Day 30, 40 mg once daily, Japanese; mean (CV%)
ASSAY ENDPOINT: AUC(0-inf) (ng·h/mL)
One number for each entry, in ng·h/mL.

Ask: Please supply the value of reported AUC(0-inf) for the item Cn1c(=O)oc2ccc(-c3ccc(C[C@@H](C#N)NC(=O)[C@@H]4CNCCCO4)cc3)cc21 [Brensocatib]
Result: 7110

###

# ASSAY TEXT: Phase 1 part A: PK after single and multiple once-daily oral doses
# Assay type: in vivo, human
# CONDITION INFO: human, plasma, oral, steady state, Japanese participants, across the 3 dose groups; read-out: mean t1/2
ASSAY ENDPOINT: half-life

Ask: Please supply the value of reported half-life for the item Cn1c(=O)oc2ccc(-c3ccc(C[C@@H](C#N)NC(=O)[C@@H]4CNCCCO4)cc3)cc21
Result: 21.7 to 23.1 h

###

# ASSAY TEXT: Phase 1 part A: PK after single and multiple once-daily oral doses
# Type: in vivo, human
# CONDITION INFO: human, plasma, po, 10 mg, Day 30, 10 mg once daily, Japanese; mean (CV%)
ASSAY ENDPOINT: AUC (ng·h/mL)
Give bare numbers, in ng·h/mL.

Ask: Please supply the value of reported AUC for the item Cn1c(=O)oc2ccc(-c3ccc(C[C@@H](C#N)NC(=O)[C@@H]4CNCCCO4)cc3)cc21 [Brensocatib]
Result: 1050

###

# ASSAY TEXT: Phase 1 part B: PK of single 40 mg oral dose, fasted vs fed (food effect)
# Assay type: in vivo, human
# CONDITION INFO: human, plasma, oral, 40 mg, White n=10, fasted; least squares mean
ASSAY ENDPOINT: AUC(0-inf) (ng·h/mL)
One number for each entry, in ng·h/mL.

Ask: Please supply the value of reported AUC(0-inf) for the item Cn1c(=O)oc2ccc(-c3ccc(C[C@@H](C#N)NC(=O)[C@@H]4CNCCCO4)cc3)cc21 [Brensocatib]
Result: 6200

###

# ASSAY TEXT: Phase 1 part A: PK after single and multiple once-daily oral doses
# Type: in vivo, human
# CONDITION INFO: human, plasma, po, 10 mg, Day 30, 10 mg once daily, White; median (range); read-out: Tmax
ASSAY ENDPOINT: Tmax (h)
Answers are plain numbers, in h.

Ask: Please supply the value of reported Tmax for the item Cn1c(=O)oc2ccc(-c3ccc(C[C@@H](C#N)NC(=O)[C@@H]4CNCCCO4)cc3)cc21
Result: 1.02

###

# ASSAY TEXT: Phase 1 part A: PK after single and multiple once-daily oral doses
# Assay type: in vivo, human
# CONDITION INFO: human, plasma, po, 10 mg, Day 1, 10 mg, White; mean (CV%)
ASSAY ENDPOINT: AUC(0-t) (ng·h/mL)
Give bare numbers, in ng·h/mL.

Ask: Please supply the value of reported AUC(0-t) for the item Cn1c(=O)oc2ccc(-c3ccc(C[C@@H](C#N)NC(=O)[C@@H]4CNCCCO4)cc3)cc21
Result: 988

###

# ASSAY TEXT: Phase 1 part B: PK of single 40 mg oral dose, fasted vs fed (food effect)
# Assay type: in vivo, human
# CONDITION INFO: human, plasma, po, 40 mg, 40 mg single oral, fasted, Japanese
ASSAY ENDPOINT: AUC(0-inf) (ng·h/mL)
Numbers only, in ng·h/mL.

Ask: Please supply the value of reported AUC(0-inf) for the item Cn1c(=O)oc2ccc(-c3ccc(C[C@@H](C#N)NC(=O)[C@@H]4CNCCCO4)cc3)cc21
Result: 5180

###

# ASSAY TEXT: Phase 1 part B: PK of single 40 mg oral dose, fasted vs fed (food effect)
# Assay type: in vivo, human
# CONDITION INFO: human, plasma, po, 40 mg, 40 mg single oral dose, Japanese, fed; mean (CV%)
ASSAY ENDPOINT: AUC(0-inf) (ng·h/mL)
One number for each entry, in ng·h/mL.

Ask: Please supply the value of reported AUC(0-inf) for the item Cn1c(=O)oc2ccc(-c3ccc(C[C@@H](C#N)NC(=O)[C@@H]4CNCCCO4)cc3)cc21
Result: 5490

###

# ASSAY TEXT: Phase 1 part A: PK after single and multiple once-daily oral doses
# Type: in vivo, human
# CONDITION INFO: human, plasma, po, 10 mg, Day 30, 10 mg once daily, Japanese; mean (CV%)
ASSAY ENDPOINT: AUC(0-t) (ng·h/mL)
One number for each entry, in ng·h/mL.

Ask: Please supply the value of reported AUC(0-t) for the item Cn1c(=O)oc2ccc(-c3ccc(C[C@@H](C#N)NC(=O)[C@@H]4CNCCCO4)cc3)cc21
Result: 1730

###

# ASSAY TEXT: Phase 1 part A: PK after single and multiple once-daily oral doses
# Assay type: in vivo, human
# CONDITION INFO: human, plasma, po, 25 mg, Day 30, 25 mg once daily, White; mean (CV%)
ASSAY ENDPOINT: AUC(0-t) (µg·h/mL)
Numbers only, in µg·h/mL.

Ask: Please supply the value of reported AUC(0-t) for the item Cn1c(=O)oc2ccc(-c3ccc(C[C@@H](C#N)NC(=O)[C@@H]4CNCCCO4)cc3)cc21
Result: 6.71

###

# ASSAY TEXT: Phase 1 part A: PK after single and multiple once-daily oral doses
# Format: in vivo, human
# CONDITION INFO: human, plasma, po, 10 mg, Day 30, 10 mg once daily, White; mean (CV%)
ASSAY ENDPOINT: AUC(0-inf) (ng·h/mL)
One number for each entry, in ng·h/mL.

Ask: Please supply the value of reported AUC(0-inf) for the item Cn1c(=O)oc2ccc(-c3ccc(C[C@@H](C#N)NC(=O)[C@@H]4CNCCCO4)cc3)cc21
Result: 2540

###

# ASSAY TEXT: Phase 1 part B: PK of single 40 mg oral dose, fasted vs fed (food effect)
# Type: in vivo, human
# CONDITION INFO: human, plasma, oral, 40 mg, Japanese n=9, fasted; least squares mean
ASSAY ENDPOINT: Cmax (ng/mL)
Numbers only, in ng/mL.

Ask: Please supply the value of reported Cmax for the item Cn1c(=O)oc2ccc(-c3ccc(C[C@@H](C#N)NC(=O)[C@@H]4CNCCCO4)cc3)cc21
Result: 356

###

# ASSAY TEXT: Phase 1 part A: PK after single and multiple once-daily oral doses
# Type: in vivo, human
# CONDITION INFO: human, plasma, po, 25 mg, Day 1, 25 mg, White; mean (CV%)
ASSAY ENDPOINT: Cmax (ng/mL)
Numbers only, in ng/mL.

Ask: Please supply the value of reported Cmax for the item Cn1c(=O)oc2ccc(-c3ccc(C[C@@H](C#N)NC(=O)[C@@H]4CNCCCO4)cc3)cc21
Result: 161

###

# ASSAY TEXT: Phase 1 part A: PK after single and multiple once-daily oral doses
# Type: in vivo, human
# CONDITION INFO: human, plasma, po, 40 mg, Day 1, 40 mg, White; mean (CV%)
ASSAY ENDPOINT: AUC(0-t)
Please format your answer as a value with the unit trailing.

Ask: Please supply the value of reported AUC(0-t) for the item Cn1c(=O)oc2ccc(-c3ccc(C[C@@H](C#N)NC(=O)[C@@H]4CNCCCO4)cc3)cc21
Result: 5300 ng·h/mL
